Could you please report measured composite z-score for the items listed next?
test: binders from COS7 lysate, DM2A8 probe, primary screen, torsin A project, cell lysate, small-molecule microarray, fluorescence 635/667 (AID 1065); details: higher = more signal, COS7 lysate expressing mutant human TOR1A
Number only, no unit.

For the molecule shown here, NC(=O)NCC#Cc1ccc2c(c1)[C@]1(C(=O)N2)[C@H](c2ccc(O)cc2)N2[C@H](c3ccccc3)[C@H](c3ccccc3)OC(=O)[C@H]2[C@@H]1C(=O)NC[C@H](O)c1ccccc1 , give the reported composite z-score. -1.23

For the molecule shown here, COC(=O)[C@@]1(Cc2ccc(OC)cc2)[C@H]2c3cc(C(=O)N4CCCC4)n(Cc4ccc(C)o4)c3C[C@H]2CN1C(=O)c1ccccc1 , give the reported composite z-score. -0.0673

For the molecule shown here, COC(=O)[C@]1(Cc2ccccc2CN=[N+]=[N-])N=C(c2ccc(OCCCO)cc2)O[C@@H]1c1ccccc1CN=[N+]=[N-] , give the reported composite z-score. -0.119

For the molecule shown here, O=C1O[C@@H](c2ccccc2)[C@@H](c2ccccc2)N2[C@@H](c3ccc(O)cc3)[C@]3(C(=O)Nc4ccc(C#CC5=CCCCC5)cc43)[C@@H](C(=O)Nc3nc4ccccc4s3)[C@H]12 , give the reported composite z-score. 0.449

For the molecule shown here, OCc1ccc(-c2cc[n+](Cc3cccc(OC(F)(F)F)c3)cc2)cc1 , give the reported composite z-score. 0.502

For the molecule shown here, C[C@@H]1ON(c2ccccc2)[C@H](c2ccccc2)[C@H]1C(=O)N1C(=O)OC[C@H]1Cc1ccccc1 , give the reported composite z-score. 0.464

For the molecule shown here, CCCCC(=C=CC[C@H](O)c1cccc(OCCO)c1)C[C@H](O)COCc1ccccc1 , give the reported composite z-score. 0.284

Where do the numbers come from? From PubChem BioAssay.
